Give koff for every item shown.
- target.or.system: T1, human/cynomolgus monkey ROR1 protein (Acro Biosystems, Cat. No.: RO1-H522y) (human/cynomolgus monkey, UniProt Q01973 30-403)
- T1 construct: Bought SPR analyte
- T1 sequence (Q01973 30-403 limits assumed): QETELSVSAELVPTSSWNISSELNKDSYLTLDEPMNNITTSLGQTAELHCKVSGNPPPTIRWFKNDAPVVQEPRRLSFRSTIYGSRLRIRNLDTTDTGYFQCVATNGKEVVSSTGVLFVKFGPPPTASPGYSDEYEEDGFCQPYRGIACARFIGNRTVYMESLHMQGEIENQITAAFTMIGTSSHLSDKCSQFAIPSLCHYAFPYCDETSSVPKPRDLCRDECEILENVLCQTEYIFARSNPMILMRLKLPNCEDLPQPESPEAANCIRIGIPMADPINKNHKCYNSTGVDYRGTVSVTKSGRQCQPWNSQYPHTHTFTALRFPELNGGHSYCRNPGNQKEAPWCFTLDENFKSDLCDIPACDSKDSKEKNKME
- procedure.summary: SPR (Biacore), antibody captured on anti-hIgG CM5 chip, ROR1 protein as analyte, method of Example 5
Numbers only, in s⁻¹.

The following binders have reported results that may help.
[[record]]
binder = "hz137G11D10-1.1 (antibody, human IgG1, kappa, V domains shown, Humanized, human IgG1/kappa) VH: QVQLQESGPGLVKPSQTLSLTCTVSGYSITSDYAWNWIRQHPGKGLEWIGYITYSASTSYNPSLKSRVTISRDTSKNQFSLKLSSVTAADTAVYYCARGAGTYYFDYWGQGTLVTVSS VL: ETTLTQSPAFMSATPGDKVNISCITSTDIDEDMNWYQQKPGEAAKLIISEDNSLRPGIPPRFSSSGYGTDFTLTINNIESEDAAYYFCLQTNNLPLTFGQGTKVEIKR"
unit_text = "s⁻¹"
obs_value = 0.000539

[[record]]
binder = "hz137G11D10-2.1 (antibody, human IgG1, kappa, V domains shown, Humanized, human IgG1/kappa) VH: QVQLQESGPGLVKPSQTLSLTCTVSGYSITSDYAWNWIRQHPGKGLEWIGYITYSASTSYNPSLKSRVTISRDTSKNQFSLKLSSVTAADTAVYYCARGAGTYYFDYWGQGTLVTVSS VL: DIQMTQSPSSLSASVGDRVTITCITSTDIDEDMNWYQQKPGKAPKLLIYEDNSLRPGVPSRFSGSGYGTDFTLTISSLQPEDFATYYCLQTNNLPLTFGQGTKVEIKR"
unit_text = "s⁻¹"
obs_value = 0.000792

[[record]]
binder = "hz137G11D10-2.2 (antibody, human IgG1, kappa, V domains shown, Humanized, human IgG1/kappa) VH: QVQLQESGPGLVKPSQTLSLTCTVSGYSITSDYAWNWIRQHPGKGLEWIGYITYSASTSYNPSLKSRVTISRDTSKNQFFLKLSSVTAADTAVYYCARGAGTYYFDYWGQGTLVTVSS VL: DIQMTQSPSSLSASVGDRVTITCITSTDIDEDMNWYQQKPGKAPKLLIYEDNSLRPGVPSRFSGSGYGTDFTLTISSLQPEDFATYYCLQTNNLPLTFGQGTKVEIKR"
unit_text = "s⁻¹"
obs_value = 0.000811

[[record]]
binder = "hz135A2B10-1.1 (antibody, human IgG1, kappa, V domains shown, Humanized, human IgG1/kappa) VH: QVQLVESGGGLVQPGGSLRLSCAASGFAFSTYGMAWVRQAPGKGLEWVASIHKGGFSTYYPDNVKGRFTISRDNAKNSLYLQMNSLRAEDTAVYYCARHDWDGAMDYWGQGTLVTVSS VL: DIQMTQSPSSLSASVGDRVTITCKASQDINSYLNWYQQKPGKAPKTLIYRANRLVDGVPSRFSGSGSGQDYTLTISSLQPEDFATYYCLQFDEFPYTFGQGTKVEIKR"
unit_text = "s⁻¹"
obs_value = 0.00051

[[record]]
binder = "hz137G11D10-3.2 (antibody, human IgG1, kappa, V domains shown, Humanized, human IgG1/kappa) VH: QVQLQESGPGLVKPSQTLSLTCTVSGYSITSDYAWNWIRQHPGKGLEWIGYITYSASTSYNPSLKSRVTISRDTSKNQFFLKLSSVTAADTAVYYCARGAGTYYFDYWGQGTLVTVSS VL: DIQMTQSPSSLSASVGDRVTITCITSTDIDEDMNWYQQKPGKAPKLLISEDNSLRPGVPSRFSSSGYGTDFTLTISSLQPEDFATYYCLQTNNLPLTFGQGTKVEIKR"
unit_text = "s⁻¹"
obs_value = 0.000469


// batch mode: one koff value per listed entry
1. hz135A2B10-1.2 (antibody, human IgG1, kappa, V domains shown, Humanized, human IgG1/kappa) VH: QVQLVESGGGLVQPGGSLRLSCAASGFAFSTYGMAWVRQAPGKGLEWVASIHKGGFSTYYPDNVKGRFTISRDNDKNSLYLQMNSLRAEDTAVYYCIRHDWDGAMDYWGQGTLVTVSS VL: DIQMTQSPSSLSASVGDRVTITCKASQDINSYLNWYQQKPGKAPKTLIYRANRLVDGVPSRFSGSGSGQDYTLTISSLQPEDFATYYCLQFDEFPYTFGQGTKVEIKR
2. hz135A2B10-1.3 (antibody, human IgG1, kappa, V domains shown, Humanized, human IgG1/kappa) VH: QVQLVESGGGLVQPGGSLRLSCAASGFAFSTYGMAWVRQAPGKRLEWVASIHKGGFSTYYPDNVKGRFTISRDNDKNSLYLQMNSLRAEDTAVYYCIRHDWDGAMDYWGQGTLVTVSS VL: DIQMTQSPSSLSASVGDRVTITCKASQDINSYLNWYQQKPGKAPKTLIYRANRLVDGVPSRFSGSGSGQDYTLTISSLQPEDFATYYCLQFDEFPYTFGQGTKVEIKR
3. hz29H5D8-3.2 (antibody, human IgG1, kappa, V domains shown, Humanized, human IgG1/kappa) VH: QVQLVQSGAEVKKPGSSVKVSCKASGYTFTNYGISWVRQAPGQGLEWMGEIYPRSVNTYYSAKFKGRVTITADKSTSTAYMELSSLRSEDTAVYYCARHYYGSSLDYWGQGTLVTVSS VL: DIQMTQSPSSLSASVGDRVTITCITSSDIEDDMNWYQQKPGKAPKLLISEGNSLRPGVPSRFSSSGYGTDFTFTISSLQPEDIATYYCLQSDNIFTFGQGTKVEIKR
4. UC-961 (antibody, V domains shown) VH: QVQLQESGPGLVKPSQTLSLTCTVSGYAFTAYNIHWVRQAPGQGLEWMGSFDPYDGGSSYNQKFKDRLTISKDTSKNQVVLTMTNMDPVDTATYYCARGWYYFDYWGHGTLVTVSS VL: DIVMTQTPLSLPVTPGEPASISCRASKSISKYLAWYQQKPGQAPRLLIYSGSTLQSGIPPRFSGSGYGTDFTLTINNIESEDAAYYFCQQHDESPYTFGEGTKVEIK
5. hz137G11D10-1.2 (antibody, human IgG1, kappa, V domains shown, Humanized, human IgG1/kappa) VH: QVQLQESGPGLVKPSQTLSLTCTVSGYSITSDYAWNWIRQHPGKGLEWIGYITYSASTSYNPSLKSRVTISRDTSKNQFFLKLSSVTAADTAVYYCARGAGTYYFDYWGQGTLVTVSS VL: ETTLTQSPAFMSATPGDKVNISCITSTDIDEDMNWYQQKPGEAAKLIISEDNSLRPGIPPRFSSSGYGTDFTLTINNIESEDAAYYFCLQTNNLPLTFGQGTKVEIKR

[out]
[0.000596, 0.000567, 0.000354, 0.0018, 0.000414]
